# target_or_test_system: UniProt Q99705
# Sequence (Q99705 whole entry): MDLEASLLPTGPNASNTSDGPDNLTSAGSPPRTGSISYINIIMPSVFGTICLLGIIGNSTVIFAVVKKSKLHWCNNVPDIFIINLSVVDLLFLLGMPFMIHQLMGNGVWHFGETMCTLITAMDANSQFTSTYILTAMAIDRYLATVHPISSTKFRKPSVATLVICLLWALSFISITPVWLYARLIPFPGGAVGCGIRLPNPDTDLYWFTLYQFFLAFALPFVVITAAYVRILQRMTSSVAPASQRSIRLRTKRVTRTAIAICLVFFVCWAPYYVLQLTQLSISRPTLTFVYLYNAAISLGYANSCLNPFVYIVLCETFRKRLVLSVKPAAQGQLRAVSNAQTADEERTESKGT
# assay_overview: functional IC50 of MCH1R antagonists: cellular calcium flux (FLIPR), called calcium immobilization assay
# condition_context: calcium flux after addition of agonist (MCH), recombinant HEK293 cell line expressing the human MCH receptor
Rule: IC50 below 2000 nM gives TRUE. Equal to or above 2000 nM gives FALSE.

Problem: For the molecule CC(O)CCNc1ccc2c(c1)CCN(c1ccc(N3CC[C@@H](N(C)C)C3)c(F)c1)C2=O (stereo partly shown) [Example 106] , is IC50 under 2000 nM?
Solution: FALSE

Problem: For the molecule CN(C)[C@@H]1CCN(c2ccc(N3CCc4cc(C#CC(C)(C)O)sc4C3=O)cc2)C1 [Example 361] , is IC50 under 2000 nM?
Solution: FALSE

Problem: For the molecule CN(C)[C@@H]1CCN(c2ccc(N3CCc4cc(N5C[C@H]6CCCN6C5=O)ccc4C3=O)cc2F)C1 [Example 99] , is IC50 under 2000 nM?
Solution: TRUE

Problem: For the molecule CN1C[C@H]2CCN(c3ccc(-n4ccc5cc(OC[C@@H]6CCCO6)ccc5c4=O)cc3)[C@H]2C1 [Example 324] , is IC50 under 2000 nM?
Solution: TRUE

Problem: For the molecule O=c1c2ccc(OC[C@H]3CCCO3)cc2ccn1-c1ccc(N2CCC3(CNCCO3)C2)c(F)c1 (stereo partly shown) [Example 341] , is IC50 under 2000 nM?
Solution: TRUE

Problem: For the molecule CC1(O)CCN(C2CCN(c3ccc(-n4ccc5cc(OC[C@H]6CCCO6)ccc5c4=O)cc3F)C2)CC1 (stereo partly shown) [Example 321] , is IC50 under 2000 nM?
Solution: TRUE

Problem: For the molecule C[C@@H](O)C#Cc1ccc2c(=O)n(-c3ccc(N4CC[C@@H](N5CCCC5)C4)c(F)c3)ccc2c1 [Example 136] , is IC50 under 2000 nM?
Solution: TRUE
